Tested on: SR leukemia
assay: NCI-60 one-dose screen, 48 h
measurement_context: 10 µM unless noted
Compounds without any hit were thinned out: in the full panel of roughly 83,000, 20% have a hit. Activity calls are given as the source filed them. Rule for the calls: active = growth percent below 10; inactive = the rest.
Please answer using one outcome listed in active, inactive

# compound, category_label
rows = [
    ("O=C1CN(CCN2CC(=O)N(Cc3ccccc3)C(=O)C2)CC(=O)N1Cc1ccccc1", "inactive"),
]

Dear colleague, could you share the recorded outcome for `CN1CCN(CC(=O)N2c3cccc4cccc(c34)N(C(=O)CN3CCN(C)CC3)C2c2cn(-c3ccccc3)nc2-c2cccc([N+](=O)[O-])c2)CC1` when you have a moment? active

Please let me know the test result on file for `CNC(=O)c1cc(-n2ccc3cc(NC(=O)c4ccc(N5CCOCC5)c(C(F)(F)F)c4)ccc32)ccn1` . inactive

Outcome? `COc1cccc(/C=C2\C=C(c3ccccc3)N(Cc3ccccc3)C2=O)c1` inactive

What was the test verdict on `CCCCOc1nc2c(C)cccc2cc1-c1cc(-c2ccc(Cl)cc2)nc(-c2ccc(Cl)cc2)c1` ? inactive

Called result for `O=[N+]([O-])c1ccc(Oc2nc(Nc3ccc(O[C@H]4CO[C@H]5[C@@H]4OC[C@@H]5O)c(Cl)c3)ncc2F)c(Cl)c1` inactive
